Molecular target: menin/MLL (terbium chelate-labeled menin, FITC-MBM1 peptide) (Homo sapiens, UniProt O00255, T541A)
Construct: Menin (a.a 1-610-6xhis tag)
Sequence (O00255 with tags, fused parts or gaps T541A): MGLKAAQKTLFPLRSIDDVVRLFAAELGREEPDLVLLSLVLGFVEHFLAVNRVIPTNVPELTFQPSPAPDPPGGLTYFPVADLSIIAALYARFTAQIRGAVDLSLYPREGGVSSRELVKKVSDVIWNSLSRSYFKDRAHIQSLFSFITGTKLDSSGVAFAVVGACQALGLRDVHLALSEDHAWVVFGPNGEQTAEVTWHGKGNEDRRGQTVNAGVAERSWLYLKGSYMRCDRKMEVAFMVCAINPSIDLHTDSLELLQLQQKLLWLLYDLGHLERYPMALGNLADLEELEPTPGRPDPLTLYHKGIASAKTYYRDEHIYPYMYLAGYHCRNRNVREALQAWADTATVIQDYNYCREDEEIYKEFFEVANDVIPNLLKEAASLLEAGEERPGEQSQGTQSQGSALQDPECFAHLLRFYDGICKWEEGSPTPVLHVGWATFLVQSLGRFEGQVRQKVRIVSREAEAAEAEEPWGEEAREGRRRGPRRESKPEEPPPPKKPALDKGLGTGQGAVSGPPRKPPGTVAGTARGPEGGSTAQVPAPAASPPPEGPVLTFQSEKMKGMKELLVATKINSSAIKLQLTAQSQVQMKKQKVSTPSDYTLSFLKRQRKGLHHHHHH
Test: Menin/MLL homogenous time-resolved fluorescence (HTRF) assay
Conditions: 30 min incubation
reportedProperty: IC50 (nM)
Answers are plain numbers, in nM.

# molecule, IC50 (nM)
data = [
    ("CC(=O)N1CC2(C1)CN([C@H]1C[C@H]([C@H](C(C)C)N3CC4(CCN(c5ncnnc5Oc5ccc(F)cc5-c5ncc(C)cc5C5CC5)C4)C3)C1)C2 (single isomer, unassigned) [Compound 374]", 0.19),
]

Provide reported IC50 for each item, in the same order as listed.
1. CC(C)[C@@H]([C@H]1C[C@H](N2CC[C@H](C(=O)N(C)C)C2)C1)N1CC2(CCN(c3ncnnc3Oc3ccc(F)cc3-c3cnncc3C3CC3)C2)C1 (single isomer, unassigned) [Compound 117]
2. CNC(=O)c1coc(N[C@H]2C[C@@H](C(C(C)C)N3CC4(CCN(c5ncnnc5Oc5ccc(F)cc5-c5cncnc5C5CC5)C4)C3)C2)n1 (single isomer, unassigned) [Compound 438]
3. CC(=O)N1CCN([C@H]2C[C@@H]([C@@H](C(C)C)N3CC4(CCN(c5ncnnc5Oc5ccc(F)cc5-c5cncnc5C5CC5)C4)C3)C2)CC1 (single isomer, unassigned) [Compound 34]
4. CC(C)C([C@H]1C[C@H](N2C[C@H]3COC[C@H]3C2)C1)N1CC2(CCN(c3ncnnc3Oc3ccc(F)cc3-c3cncc(C#N)c3C3CC3)C2)C1 (stereo partly shown) [Compound 143]
5. CC(C)C([C@H]1C[C@H](N(C)C)C1)N1CC2(CCN(c3ncnnc3Oc3ccc(F)cc3-c3cncnc3C3CC3)C2)C1 (single isomer, unassigned) [Compound 8]
6. CC(C)[C@@H]([C@H]1C[C@@H](N2CCC(S(C)(=O)=O)CC2)C1)N1CC2(CCN(c3ncnnc3Oc3ccc(F)cc3-c3ncccc3C3CC3)C2)C1 (single isomer, unassigned) [Compound 26]

Completion:
1. 0.1
2. 0.16
3. 0.5
4. 0.1
5. 0.3
6. 6.2

Provide reported IC50 for each item, in the same order as listed.
1. CC(C)[C@H]([C@H]1C[C@H](N2CCC[C@H](C(=O)N(C)C)C2)C1)N1CC2(CCN(c3ncnnc3Oc3ccc(F)cc3-c3cncnc3C3CC3)C2)C1 (single isomer, unassigned) [Compound 52]
2. CNC(=O)c1cccc(N[C@H]2C[C@@H](C(C(C)C)N3CC4(CCN(c5ncnnc5Oc5ccc(F)cc5-c5cncnc5C5CC5)C4)C3)C2)n1 (single isomer, unassigned) [Compound 450]
3. CC(C)[C@H]([C@H]1C[C@@H](N2CC3(COC3)C2)C1)N1CC2(CCN(c3ncnnc3Oc3ccc(F)cc3-c3ncccc3C3CC3)C2)C1 (single isomer, unassigned) [Compound 151]
4. CC(C)[C@H]([C@H]1C[C@@H](NC(=O)C2(F)CC2)C1)N1CC2(CCN(c3ncnnc3Oc3ccc(F)cc3-c3cncnc3C3CC3)C2)C1 (single isomer, unassigned) [Compound 301]
5. CC(=O)N1CC2CN([C@H]3C[C@@H]([C@H](C(C)C)N4CC5(CCN(c6ncnnc6Oc6ccc(F)cc6-c6cnc(C)nc6C6CC6)C5)C4)C3)CC2C1 (stereo partly shown) [Compound 377]

Completion:
1: 0.4; 2: 0.08; 3: 0.1; 4: 0.2; 5: 0.137

Provide reported IC50 for each item, in the same order as listed.
1. CC(C)[C@H]([C@H]1C[C@@H](Nc2ccnc(NS(C)(=O)=O)n2)C1)N1CC2(CCN(c3ncnnc3Oc3ccc(F)cc3-c3cncnc3C3CC3)C2)C1 (single isomer, unassigned) [Compound 408]
2. CC(C)[C@H]([C@H]1C[C@@H](N2CCC(C)(C(=O)N(C)C)C2)C1)N1CC2(CCN(c3ncnnc3Oc3ccc(F)cc3-c3cncnc3C3CC3)C2)C1 (stereo partly shown) [Compound 161]
3. CC(C)[C@H]([C@H]1C[C@@H](N2CC[C@@H](C(C)(C)O)C2)C1)N1CC2(CCN(c3ncnnc3Oc3ccc(F)cc3-c3cncnc3C3CC3)C2)C1 (single isomer, unassigned) [Compound 70]
4. CC(C)[C@@H]([C@H]1C[C@@H](N2CCC3(COC3)C2)C1)N1CC2(CCN(c3ncnnc3Oc3ccc(F)cc3-c3nnccc3C3CC3)C2)C1 (single isomer, unassigned) [Compound 254]
5. CC(C)[C@H]([C@H]1C[C@@H](N2CC[C@H](O)C23CC3)C1)N1CC2(CCN(c3ncnnc3Oc3ccc(F)cc3-c3cncnc3C3CC3)C2)C1 (single isomer, unassigned) [Compound 41]

Completion:
1. 0.14
2. 0.1
3. 0.1
4. 0.1
5. 0.2

Provide reported IC50 for each item, in the same order as listed.
1. CC(C)[C@@H]([C@H]1C[C@@H](N2CC3(CCO3)C2)C1)N1CC2(CCN(c3ncnnc3Oc3ccc(F)cc3-c3cnncc3C3CC3)C2)C1 (single isomer, unassigned) [Compound 102]
2. CO[C@H]1[C@@H]2CN([C@H]3C[C@H]([C@H](C(C)C)N4CC5(CCN(c6ncnnc6Oc6ccc(F)cc6-c6nnc(C)cc6C6CC6)C5)C4)C3)C[C@@H]21 [Compound 403]

Completion:
1: 0.1; 2: 0.59
